From: patent US11008317B2

target: myeloperoxidase (Homo sapiens); test: MPO Chlorination Assay (APF Assay); format: biochemical; conditions: potency range class, read-out: APF Assay IC50 value
Sequence (P05164 49-745): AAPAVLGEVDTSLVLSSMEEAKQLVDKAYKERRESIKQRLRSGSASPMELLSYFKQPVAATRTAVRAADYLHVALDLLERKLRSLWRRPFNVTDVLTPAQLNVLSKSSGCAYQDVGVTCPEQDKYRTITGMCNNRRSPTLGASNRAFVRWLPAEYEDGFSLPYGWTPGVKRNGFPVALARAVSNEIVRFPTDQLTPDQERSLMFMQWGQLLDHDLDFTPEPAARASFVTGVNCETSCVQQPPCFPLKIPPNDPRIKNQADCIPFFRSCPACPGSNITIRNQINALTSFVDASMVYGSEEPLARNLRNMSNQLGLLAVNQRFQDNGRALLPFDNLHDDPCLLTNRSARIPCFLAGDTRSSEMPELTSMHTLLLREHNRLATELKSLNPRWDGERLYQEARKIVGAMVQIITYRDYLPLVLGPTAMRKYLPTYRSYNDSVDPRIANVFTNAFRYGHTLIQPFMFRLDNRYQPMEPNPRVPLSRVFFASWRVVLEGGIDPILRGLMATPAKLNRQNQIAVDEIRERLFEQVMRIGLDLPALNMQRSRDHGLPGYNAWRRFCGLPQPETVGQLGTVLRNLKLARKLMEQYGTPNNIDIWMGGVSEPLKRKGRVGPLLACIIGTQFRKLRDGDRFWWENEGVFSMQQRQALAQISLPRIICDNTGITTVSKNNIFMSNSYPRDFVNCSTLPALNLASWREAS
pIC50: −log10 of the molar value. Structures can show the parent of a compound that is named as a salt.
PROPERTY LABEL: pIC50

# MOLECULE, PROPERTY LABEL, RESULT
records = [
    ("Nc1cc(C(CC(O)CCc2ccccc2)c2ccccc2)c2nn[nH]c2n1 (stereo not shown) [Example 225, TFA]", "pIC50", "6.00 to 7.00"),
    ("Nc1cc(C(CCNC2Cc3ccccc3C2)c2ccccc2)c2nn[nH]c2n1 (stereo not shown) [Example 41]", "pIC50", "6.00 to 7.00"),
    ("Nc1cc(C(CCNCc2ccccc2Cc2ccc3c(c2)CCCC3)c2ccccc2)c2nn[nH]c2n1 (stereo not shown) [Example 78]", "pIC50", "7.00 to 9.00"),
]

For the next question, use this molecule.
The molecule listed as Nc1cc(C(CCNC2CCC(c3cccc(Cl)c3)CC2)c2ccccc2)c2nn[nH]c2n1 (stereo not shown) [Example 105] shows pIC50 equal to 7.00 to 9.00
